TGI for assorted compounds
Test system: OVCAR-8 ovarian
assay notes: NCI tumour cell line growth inhibition, 48 h

[
  {
    "compound": "CCOC(=O)NC(Nc1ccc(C(=O)O)cc1)(C(F)(F)F)C(F)(F)F",
    "TGI": "> 100 µM"
  },
  {
    "compound": "NC(=O)C1C(=O)Oc2cccnc21 (stereo unspecified)",
    "TGI": "> 100 µM"
  },
  {
    "compound": "Nc1c([N+](=O)[O-])ncn1C1OC(CO)C(O)C1O (stereo unspecified)",
    "TGI": "> 100 µM"
  },
  {
    "compound": "N#CC(C#N)=C/C=C/c1ccccc1[N+](=O)[O-]",
    "TGI": "3.75 µM"
  },
  {
    "compound": "COC1CCC(OS(C)(=O)=O)C(C)O1 (stereo unspecified)",
    "TGI": "> 10 µM"
  },
  {
    "compound": "COc1ccccc1CNCCCN1C(=O)c2ccc3c4c(ccc(c24)C1=O)C(=O)N(CCCNCCCCN)C3=O",
    "TGI": "0.933 µM"
  }
]
